System: Saccharomyces cerevisiae
Assay Protocol: protein stability index of tFT-peptide fusion (C-terminal peptide) (PSI (0-1 scale)); higher = more stable (slower turnover)
Measurement Conditions: genetic background: wild type; temperature: 30 C
Rule: protein stability index under 0.7 gives false (0), otherwise true (1).

[
  {
    "Chain Sequence": "ASCRRGGAGCLR",
    "Target Under Test": "Saccharomyces cerevisiae",
    "Answer Label": "true (1)"
  }
]

Then there is this sequence:
## Input Check if protein stability index >= 0.7 (inclusive). Item: LVLSGSAFFYLG
## Output false (0)

* * *

Tested on: Saccharomyces cerevisiae;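 note: PSI is a weighted mean of sequencing reads over stability bins, variants kept only with over 10 reads, mCherry proximal and sfGFP distal, peptide attached via GGGS linker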
Assay Protocol: protein stability index of tFT-peptide fusion (C-terminal peptide) (PSI (0-1 scale)); higher = more stable (slower turnover)
Measurement Conditions: genetic background: wild type; temperature: 30 C
Metric Name: protein stability index
Give the value as a plain number.

Sample SHGQAPFNVLVA ; protein stability index observed: 0.596

Sample QLPSDENSPANR ; protein stability index observed: 0.615

Sample LAAWQPTSYASV ; protein stability index observed: 0.592
